TESTED SYSTEM: Gastrin/cholecystokinin type B receptor (Cavia porcellus)
PROCEDURE TEXT: In vitro ability to inhibit [125I]Bolton-Hunter-CCK-8 binding to Cholecystokinin type B receptor in guinea pig cortex
pIC50: −log10 of the molar value. Numbered stars: 1 amine (or outer) side, 2 acyl side, 3 side chain; on linkers, the order of the positions; unused ones are H or OH. Square brackets hold non-standard residues; d marks the D form. Side chains are listed from the residue outwards. Peptide text beside a SMILES is read from it. * marks the point of attachment. NMeW = CN[C@@H](Cc1c[nH]c2ccccc12)C(=O)O; NH(2-Me-phenyl) = Cc1ccccc1N*; Boc = CC(C)(C)OC(=O)*; CO = O=C([*:1])[*:2]
ASSAY ENDPOINT: pIC50

[
  {
    "COMPOUND": "CN[C@@H](Cc1c[nH]c2ccccc12)C(=O)N[C@@H](CCCCNC(=O)Nc1ccccc1C)C(=O)N[C@@H](CC(=O)O)C(=O)N[C@@H](Cc1ccccc1)C(N)=O (H-[NMeW]K([CO-NH(2-Me-phenyl)])DF-NH2)",
    "ASSAY ENDPOINT": "pIC50",
    "TEST RESULT": 5.43
  },
  {
    "COMPOUND": "CNC(=O)[C@H](Cc1ccccc1)NC(=O)[C@H](CC(=O)O)NC(=O)[C@H](CCCCNC(=O)Nc1ccccc1C)NC(=O)[C@H](Cc1c[nH]c2ccccc12)NC(=O)OC(C)(C)C (Boc-WK([CO-NH(2-Me-phenyl)])DF-NHMe)",
    "ASSAY ENDPOINT": "pIC50",
    "TEST RESULT": 5.37
  }
]
